Target: Muscarinic acetylcholine receptor M2 (Homo sapiens) (UniProt P08172)
Sequence (P08172 whole entry): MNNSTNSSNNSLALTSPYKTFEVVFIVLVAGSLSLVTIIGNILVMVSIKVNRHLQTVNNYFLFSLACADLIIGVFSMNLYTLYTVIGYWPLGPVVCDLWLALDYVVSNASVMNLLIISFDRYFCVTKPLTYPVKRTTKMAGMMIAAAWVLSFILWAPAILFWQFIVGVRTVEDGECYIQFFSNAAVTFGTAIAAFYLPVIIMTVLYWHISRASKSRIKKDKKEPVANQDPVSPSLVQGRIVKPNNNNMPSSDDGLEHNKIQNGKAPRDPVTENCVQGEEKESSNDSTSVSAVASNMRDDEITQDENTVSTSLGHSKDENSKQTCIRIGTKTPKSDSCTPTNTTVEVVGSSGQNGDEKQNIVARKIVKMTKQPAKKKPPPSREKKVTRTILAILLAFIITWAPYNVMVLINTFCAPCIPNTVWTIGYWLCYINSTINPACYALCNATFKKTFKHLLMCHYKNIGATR
Assay: Ratio of binding affinity against Muscarinic acetylcholine receptor M4 to that of Muscarinic acetylcholine receptor M2
property-name: Ratio
One number for each entry.

Qu. Look at this compound and give its reported Ratio. `Cc1cccc(C(=O)N2CCC(N3CCC(Oc4ccc(S(=O)(=O)c5ccc6c(c5)OCO6)cc4)CC3)CC2)c1C`
Ans. 31

Field: Ratio. Fill in for each record below.
1. Cc1ccsc1C(=O)N1CCC(N2CCC(Oc3ccc(S(=O)(=O)c4ccc5c(c4)OCO5)cc3)CC2)CC1
2. CCOCC(=O)N1CCC(N2CCC(Oc3ccc(S(=O)(=O)c4ccc5c(c4)OCO5)cc3)CC2)CC1
3. O=C(Oc1ccccc1)N1CCC(N2CCC(Oc3ccc(S(=O)(=O)c4ccc5c(c4)OCO5)cc3)CC2)CC1
4. CCCCS(=O)(=O)N1CCC(N2CCC(Oc3ccc(S(=O)(=O)c4ccc5c(c4)OCO5)cc3)CC2)CC1

Ans.
1. 23
2. 2
3. 11
4. 4

Field: Ratio. Fill in for each record below.
1. O=C(c1cccc2cccnc12)N1CCC(N2CCC(Oc3ccc(S(=O)(=O)c4ccc5c(c4)OCO5)cc3)CC2)CC1
2. O=C(COc1ccccc1)N1CCC(N2CCC(Oc3ccc(S(=O)(=O)c4ccc5c(c4)OCO5)cc3)CC2)CC1
3. CC(C)S(=O)(=O)N1CCC(N2CCC(Oc3ccc(S(=O)(=O)c4ccc5c(c4)OCO5)cc3)CC2)CC1

Ans.
[2, 3, 2]

---

Biological target: Muscarinic acetylcholine receptor M2 (Homo sapiens) (UniProt P08172)
Assay: Ratio of binding affinity against Muscarinic acetylcholine receptor M4 to that of Muscarinic acetylcholine receptor M2
For each of the compounds below, state its Ratio.
One number for each entry.

Use these answered entries as a reference point.
Qu. Lab note: need Ratio for `CCCS(=O)(=O)N1CCC(N2CCC(Oc3ccc(S(=O)(=O)c4ccc5c(c4)OCO5)cc3)CC2)CC1` on Muscarinic acetylcholine receptor M2 (Homo sapiens) (UniProt P08172), anyone have it?
Ans. 25

Qu. Lab note: need Ratio for `O=C(c1cccc2ccccc12)N1CCC(N2CCC(Oc3ccc(S(=O)(=O)c4ccc5c(c4)OCO5)cc3)CC2)CC1` on Muscarinic acetylcholine receptor M2 (Homo sapiens) (UniProt P08172), anyone have it?
Ans. 28

Qu. Lab note: need Ratio for `O=C(c1cccc2ncccc12)N1CCC(N2CCC(Oc3ccc(S(=O)(=O)c4ccc5c(c4)OCO5)cc3)CC2)CC1` on Muscarinic acetylcholine receptor M2 (Homo sapiens) (UniProt P08172), anyone have it?
Ans. 21

Field: Ratio. Fill in for each record below.
1. CC(C)OC(=O)N1CCC(N2CCC(Oc3ccc(S(=O)(=O)c4ccc5c(c4)OCO5)cc3)CC2)CC1
2. O=C(c1ccccc1)N1CCC(N2CCC(Oc3ccc(S(=O)(=O)c4ccc5c(c4)OCO5)cc3)CC2)CC1
3. O=C(c1ccnc2ccccc12)N1CCC(N2CCC(Oc3ccc(S(=O)(=O)c4ccc5c(c4)OCO5)cc3)CC2)CC1
4. O=S(=O)(c1ccc(OC2CCN(C3CCN(S(=O)(=O)c4cccc5ccccc45)CC3)CC2)cc1)c1ccc2c(c1)OCO2
5. O=S(=O)(c1ccc(OC2CCN(C3CCN(S(=O)(=O)Cc4ccccc4)CC3)CC2)cc1)c1ccc2c(c1)OCO2
6. CCS(=O)(=O)N1CCC(N2CCC(Oc3ccc(S(=O)(=O)c4ccc5c(c4)OCO5)cc3)CC2)CC1

Ans.
1: 7; 2: 6; 3: 18; 4: 1; 5: 4; 6: 12

---

Molecular target: Muscarinic acetylcholine receptor M2 (Homo sapiens) (UniProt P08172)
Assay: Ratio of binding affinity against Muscarinic acetylcholine receptor M5 to that of Muscarinic acetylcholine receptor M2
Please mark 1.0 if the recorded Ratio is equal to or greater than 20, and 0.0 if it falls below.

Worked examples, 5 compounds total:
Qu. Form field: Ratio at least 20? Entry: `O=S(=O)(c1ccc(OC2CCN(C3CCN(S(=O)(=O)Cc4ccccc4)CC3)CC2)cc1)c1ccc2c(c1)OCO2`
Ans. 0.0

Qu. Form field: Ratio at least 20? Entry: `O=C(COc1ccccc1)N1CCC(N2CCC(Oc3ccc(S(=O)(=O)c4ccc5c(c4)OCO5)cc3)CC2)CC1`
Ans. 0.0

Qu. Form field: Ratio at least 20? Entry: `O=C(c1cccc2ncccc12)N1CCC(N2CCC(Oc3ccc(S(=O)(=O)c4ccc5c(c4)OCO5)cc3)CC2)CC1`
Ans. 1.0

Qu. Form field: Ratio at least 20? Entry: `Cc1ccsc1C(=O)N1CCC(N2CCC(Oc3ccc(S(=O)(=O)c4ccc5c(c4)OCO5)cc3)CC2)CC1`
Ans. 1.0

Qu. Form field: Ratio at least 20? Entry: `O=C(c1ccnc2ccccc12)N1CCC(N2CCC(Oc3ccc(S(=O)(=O)c4ccc5c(c4)OCO5)cc3)CC2)CC1`
Ans. 1.0

Next:
Qu. Form field: Ratio at least 20? Entry: `O=S(=O)(c1ccc(OC2CCN(C3CCN(S(=O)(=O)c4cccc5ccccc45)CC3)CC2)cc1)c1ccc2c(c1)OCO2`
Ans. 0.0

Qu. Form field: Ratio at least 20? Entry: `O=C(Oc1ccccc1)N1CCC(N2CCC(Oc3ccc(S(=O)(=O)c4ccc5c(c4)OCO5)cc3)CC2)CC1`
Ans. 1.0

Qu. Form field: Ratio at least 20? Entry: `CC(C)S(=O)(=O)N1CCC(N2CCC(Oc3ccc(S(=O)(=O)c4ccc5c(c4)OCO5)cc3)CC2)CC1`
Ans. 0.0

Qu. Form field: Ratio at least 20? Entry: `CC(C)OC(=O)N1CCC(N2CCC(Oc3ccc(S(=O)(=O)c4ccc5c(c4)OCO5)cc3)CC2)CC1`
Ans. 0.0

Qu. Form field: Ratio at least 20? Entry: `CCCCS(=O)(=O)N1CCC(N2CCC(Oc3ccc(S(=O)(=O)c4ccc5c(c4)OCO5)cc3)CC2)CC1`
Ans. 1.0

---

Target: Muscarinic acetylcholine receptor M2 (Homo sapiens, UniProt P08172)
Sequence (P08172 whole entry): as above
property-name: pKi
Answers are plain numbers, as −log10 of the molar value.

Qu. Look at this compound and give its reported pKi. `O=S(=O)(c1ccc(OC2CCN(C3CCN(S(=O)(=O)c4cccc5ccccc45)CC3)CC2)cc1)c1ccc2c(c1)OCO2`
Ans. 7.46

Qu. Look at this compound and give its reported pKi. `O=C(c1ccccc1)N1CCC(N2CCC(Oc3ccc(S(=O)(=O)c4ccc5c(c4)OCO5)cc3)CC2)CC1`
Ans. 8.80

Qu. Look at this compound and give its reported pKi. `O=C(c1ccnc2ccccc12)N1CCC(N2CCC(Oc3ccc(S(=O)(=O)c4ccc5c(c4)OCO5)cc3)CC2)CC1`
Ans. 9.00

Qu. Look at this compound and give its reported pKi. `O=C(Oc1ccccc1)N1CCC(N2CCC(Oc3ccc(S(=O)(=O)c4ccc5c(c4)OCO5)cc3)CC2)CC1`
Ans. 8.96

Qu. Look at this compound and give its reported pKi. `O=C(c1cccc2cccnc12)N1CCC(N2CCC(Oc3ccc(S(=O)(=O)c4ccc5c(c4)OCO5)cc3)CC2)CC1`
Ans. 7.92

Qu. Look at this compound and give its reported pKi. `CCCS(=O)(=O)N1CCC(N2CCC(Oc3ccc(S(=O)(=O)c4ccc5c(c4)OCO5)cc3)CC2)CC1`
Ans. 8.80

Consider the record given below.
Qu. Look at this compound and give its reported pKi. `CC(C)OC(=O)N1CCC(N2CCC(Oc3ccc(S(=O)(=O)c4ccc5c(c4)OCO5)cc3)CC2)CC1`
Ans. 8.49

---

Target: Muscarinic acetylcholine receptors; M1 & M2 (Homo sapiens) (UniProt P11229+P08172)
Test: Ratio of binding affinity against Muscarinic acetylcholine receptor M1 to that of Muscarinic acetylcholine receptor M2
Format: protein assay
Please mark 1 (yes) if the recorded Ratio is equal to or greater than 50, and 0 (no) if it falls below.

Worked examples, 4 compounds total:
Qu. Form field: Ratio at least 50? Entry: `CC(C)S(=O)(=O)N1CCC(N2CCC(Oc3ccc(S(=O)(=O)c4ccc5c(c4)OCO5)cc3)CC2)CC1`
Ans. 0 (no)

Qu. Form field: Ratio at least 50? Entry: `CCCCS(=O)(=O)N1CCC(N2CCC(Oc3ccc(S(=O)(=O)c4ccc5c(c4)OCO5)cc3)CC2)CC1`
Ans. 0 (no)

Qu. Form field: Ratio at least 50? Entry: `O=C(Oc1ccccc1)N1CCC(N2CCC(Oc3ccc(S(=O)(=O)c4ccc5c(c4)OCO5)cc3)CC2)CC1`
Ans. 0 (no)

Qu. Form field: Ratio at least 50? Entry: `Cc1cccc(C(=O)N2CCC(N3CCC(Oc4ccc(S(=O)(=O)c5ccc6c(c5)OCO6)cc4)CC3)CC2)c1C`
Ans. 1 (yes)

Next:
Qu. Form field: Ratio at least 50? Entry: `O=C(c1cccc2ncccc12)N1CCC(N2CCC(Oc3ccc(S(=O)(=O)c4ccc5c(c4)OCO5)cc3)CC2)CC1`
Ans. 1 (yes)

Qu. Form field: Ratio at least 50? Entry: `CCOCC(=O)N1CCC(N2CCC(Oc3ccc(S(=O)(=O)c4ccc5c(c4)OCO5)cc3)CC2)CC1`
Ans. 0 (no)

Qu. Form field: Ratio at least 50? Entry: `O=S(=O)(c1ccc(OC2CCN(C3CCN(S(=O)(=O)Cc4ccccc4)CC3)CC2)cc1)c1ccc2c(c1)OCO2`
Ans. 0 (no)

Value source: ChEMBL document CHEMBL1134751
